// reported kinase still bound, per cent of control for each item listed
- target.of.assay: AKT2 (human) (UniProt P31751)
- Sequence (P31751 whole entry, looked up): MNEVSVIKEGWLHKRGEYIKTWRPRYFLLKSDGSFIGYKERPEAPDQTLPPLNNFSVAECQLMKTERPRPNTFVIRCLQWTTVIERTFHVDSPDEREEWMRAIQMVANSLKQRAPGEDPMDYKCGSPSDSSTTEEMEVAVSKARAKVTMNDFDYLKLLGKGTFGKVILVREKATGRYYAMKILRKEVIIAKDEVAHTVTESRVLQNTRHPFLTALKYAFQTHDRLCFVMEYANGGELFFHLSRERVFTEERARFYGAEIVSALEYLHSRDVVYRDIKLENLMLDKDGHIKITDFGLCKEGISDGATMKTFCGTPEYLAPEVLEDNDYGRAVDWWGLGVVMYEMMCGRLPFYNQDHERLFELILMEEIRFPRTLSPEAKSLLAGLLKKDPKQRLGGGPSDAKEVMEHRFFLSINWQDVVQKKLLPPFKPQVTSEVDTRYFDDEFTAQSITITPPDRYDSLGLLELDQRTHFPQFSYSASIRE
- assay.method.text: KINOMEscan competition binding
- details: compound 10.0 µM
Numeric answer only, unit % assumed.

Examples from the recorded data:
COC(=O)Nc1ccc(-c2nc(N3CCOCC3)c3cnn(C4CCN(C(=O)OC)CC4)c3n2)cc1: 100
CCC(=O)N1CCN(c2ccc(-n3c(=O)ccc4cnc5ccc(-c6cnc7ccccc7c6)cc5c43)cc2C(F)(F)F)CC1: 100
COc1ccc(-c2ccc3c(N4CCOCC4)nc(N4C[C@@H](C)O[C@@H](C)C4)nc3n2)cc1CO: 83

We now examine a further compound.
What kinase still bound, per cent of control appears in the records for this compound with AKT2 (human) (UniProt P31751)? CC(C)n1nc(-c2cc3cc(O)ccc3[nH]2)c2c(N)ncnc21
100

* * *

- target.of.assay: EPHB3 (human)
- details: compound 10.0 µM
observed.property: per cent of control (%)
Numeric answer only, unit % assumed.

Examples from the recorded data:
COC(=O)Nc1ccc(-c2nc(N3CCOCC3)c3cnn(C4CCN(C(=O)OC)CC4)c3n2)cc1: 116
COc1ccc(-c2ccc3c(N4CCOCC4)nc(N4C[C@@H](C)O[C@@H](C)C4)nc3n2)cc1CO: 78
CC(C)n1nc(-c2cc3cc(O)ccc3[nH]2)c2c(N)ncnc21: 5

We now examine a further compound.
per cent of control for CCC(=O)N1CCN(c2ccc(-n3c(=O)ccc4cnc5ccc(-c6cnc7ccccc7c6)cc5c43)cc2C(F)(F)F)CC1 ?
94

* * *

- target.of.assay: PIP5K1C (human)
- assay.method.text: KINOMEscan competition binding
- details: compound 10.0 µM
// reported kinase still bound, per cent of control for each item listed
Numeric answer only, unit % assumed.

kinase still bound, per cent of control for COc1ccc(-c2ccc3c(N4CCOCC4)nc(N4C[C@@H](C)O[C@@H](C)C4)nc3n2)cc1CO ?
100

kinase still bound, per cent of control for COC(=O)Nc1ccc(-c2nc(N3CCOCC3)c3cnn(C4CCN(C(=O)OC)CC4)c3n2)cc1 ?
100

kinase still bound, per cent of control for CCC(=O)N1CCN(c2ccc(-n3c(=O)ccc4cnc5ccc(-c6cnc7ccccc7c6)cc5c43)cc2C(F)(F)F)CC1 ?
80

kinase still bound, per cent of control for CC(C)n1nc(-c2cc3cc(O)ccc3[nH]2)c2c(N)ncnc21 ?
9.8

* * *

- target.of.assay: MAP3K10 (human)
- assay.method.text: KINOMEscan competition binding
- details: compound 10.0 µM
observed.property: kinase still bound, per cent of control (%)
Numeric answer only, unit % assumed.

Examples from the recorded data:
CC(C)n1nc(-c2cc3cc(O)ccc3[nH]2)c2c(N)ncnc21: 53
COC(=O)Nc1ccc(-c2nc(N3CCOCC3)c3cnn(C4CCN(C(=O)OC)CC4)c3n2)cc1: 100
COc1ccc(-c2ccc3c(N4CCOCC4)nc(N4C[C@@H](C)O[C@@H](C)C4)nc3n2)cc1CO: 98

We now examine a further molecule.
kinase still bound, per cent of control for CCC(=O)N1CCN(c2ccc(-n3c(=O)ccc4cnc5ccc(-c6cnc7ccccc7c6)cc5c43)cc2C(F)(F)F)CC1 ?
99

* * *

// reported kinase still bound, per cent of control for each item listed
- target.of.assay: MAP3K3 (human)
- assay.method.text: KINOMEscan competition binding
- details: compound 10.0 µM
Numeric answer only, unit % assumed.

Examples from the recorded data:
CCC(=O)N1CCN(c2ccc(-n3c(=O)ccc4cnc5ccc(-c6cnc7ccccc7c6)cc5c43)cc2C(F)(F)F)CC1: 75
COC(=O)Nc1ccc(-c2nc(N3CCOCC3)c3cnn(C4CCN(C(=O)OC)CC4)c3n2)cc1: 81
CC(C)n1nc(-c2cc3cc(O)ccc3[nH]2)c2c(N)ncnc21: 3.2

kinase still bound, per cent of control for COc1ccc(-c2ccc3c(N4CCOCC4)nc(N4C[C@@H](C)O[C@@H](C)C4)nc3n2)cc1CO ?
76

* * *

- target.of.assay: PIM3 (human)
- details: compound 10.0 µM
// reported per cent of control for each item listed
Numeric answer only, unit % assumed.

Examples from the recorded data:
CCC(=O)N1CCN(c2ccc(-n3c(=O)ccc4cnc5ccc(-c6cnc7ccccc7c6)cc5c43)cc2C(F)(F)F)CC1: 30
COc1ccc(-c2ccc3c(N4CCOCC4)nc(N4C[C@@H](C)O[C@@H](C)C4)nc3n2)cc1CO: 75
COC(=O)Nc1ccc(-c2nc(N3CCOCC3)c3cnn(C4CCN(C(=O)OC)CC4)c3n2)cc1: 80

We now examine a further molecule.
per cent of control for CC(C)n1nc(-c2cc3cc(O)ccc3[nH]2)c2c(N)ncnc21 ?
13

* * *

- target.of.assay: CAMK1G (human) (UniProt Q96NX5)
- Sequence (Q96NX5 whole entry, looked up): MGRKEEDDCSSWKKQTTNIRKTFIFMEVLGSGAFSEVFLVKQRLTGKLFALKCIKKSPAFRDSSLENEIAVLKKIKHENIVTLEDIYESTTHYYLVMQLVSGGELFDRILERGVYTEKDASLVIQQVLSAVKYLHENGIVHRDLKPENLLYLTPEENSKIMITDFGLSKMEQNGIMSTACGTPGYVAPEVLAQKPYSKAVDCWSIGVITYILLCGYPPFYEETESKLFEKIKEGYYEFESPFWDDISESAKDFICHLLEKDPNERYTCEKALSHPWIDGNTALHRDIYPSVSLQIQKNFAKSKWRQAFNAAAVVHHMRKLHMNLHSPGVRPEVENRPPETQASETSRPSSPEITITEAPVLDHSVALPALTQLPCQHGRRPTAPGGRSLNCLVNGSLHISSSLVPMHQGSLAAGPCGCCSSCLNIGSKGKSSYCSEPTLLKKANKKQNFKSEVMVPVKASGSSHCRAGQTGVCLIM
- assay.method.text: KINOMEscan competition binding
- details: compound 10.0 µM
observed.property: kinase still bound, per cent of control (%)
Numeric answer only, unit % assumed.

COC(=O)Nc1ccc(-c2nc(N3CCOCC3)c3cnn(C4CCN(C(=O)OC)CC4)c3n2)cc1: 92
CC(C)n1nc(-c2cc3cc(O)ccc3[nH]2)c2c(N)ncnc21: 77
COc1ccc(-c2ccc3c(N4CCOCC4)nc(N4C[C@@H](C)O[C@@H](C)C4)nc3n2)cc1CO: 94

What kinase still bound, per cent of control appears in the records for this compound with CAMK1G (human) (UniProt Q96NX5)? CCC(=O)N1CCN(c2ccc(-n3c(=O)ccc4cnc5ccc(-c6cnc7ccccc7c6)cc5c43)cc2C(F)(F)F)CC1
74

* * *

- target.of.assay: MAST1 (human)
- assay.method.text: KINOMEscan competition binding
- details: compound 10.0 µM
observed.property: kinase still bound, per cent of control (%)
Numeric answer only, unit % assumed.

COc1ccc(-c2ccc3c(N4CCOCC4)nc(N4C[C@@H](C)O[C@@H](C)C4)nc3n2)cc1CO: 100

kinase still bound, per cent of control for CC(C)n1nc(-c2cc3cc(O)ccc3[nH]2)c2c(N)ncnc21 ?
87

kinase still bound, per cent of control for COC(=O)Nc1ccc(-c2nc(N3CCOCC3)c3cnn(C4CCN(C(=O)OC)CC4)c3n2)cc1 ?
81

kinase still bound, per cent of control for CCC(=O)N1CCN(c2ccc(-n3c(=O)ccc4cnc5ccc(-c6cnc7ccccc7c6)cc5c43)cc2C(F)(F)F)CC1 ?
93

* * *

// reported kinase still bound, per cent of control for each item listed
- target.of.assay: LATS1 (human) (UniProt O95835)
- Sequence (O95835 whole entry, looked up): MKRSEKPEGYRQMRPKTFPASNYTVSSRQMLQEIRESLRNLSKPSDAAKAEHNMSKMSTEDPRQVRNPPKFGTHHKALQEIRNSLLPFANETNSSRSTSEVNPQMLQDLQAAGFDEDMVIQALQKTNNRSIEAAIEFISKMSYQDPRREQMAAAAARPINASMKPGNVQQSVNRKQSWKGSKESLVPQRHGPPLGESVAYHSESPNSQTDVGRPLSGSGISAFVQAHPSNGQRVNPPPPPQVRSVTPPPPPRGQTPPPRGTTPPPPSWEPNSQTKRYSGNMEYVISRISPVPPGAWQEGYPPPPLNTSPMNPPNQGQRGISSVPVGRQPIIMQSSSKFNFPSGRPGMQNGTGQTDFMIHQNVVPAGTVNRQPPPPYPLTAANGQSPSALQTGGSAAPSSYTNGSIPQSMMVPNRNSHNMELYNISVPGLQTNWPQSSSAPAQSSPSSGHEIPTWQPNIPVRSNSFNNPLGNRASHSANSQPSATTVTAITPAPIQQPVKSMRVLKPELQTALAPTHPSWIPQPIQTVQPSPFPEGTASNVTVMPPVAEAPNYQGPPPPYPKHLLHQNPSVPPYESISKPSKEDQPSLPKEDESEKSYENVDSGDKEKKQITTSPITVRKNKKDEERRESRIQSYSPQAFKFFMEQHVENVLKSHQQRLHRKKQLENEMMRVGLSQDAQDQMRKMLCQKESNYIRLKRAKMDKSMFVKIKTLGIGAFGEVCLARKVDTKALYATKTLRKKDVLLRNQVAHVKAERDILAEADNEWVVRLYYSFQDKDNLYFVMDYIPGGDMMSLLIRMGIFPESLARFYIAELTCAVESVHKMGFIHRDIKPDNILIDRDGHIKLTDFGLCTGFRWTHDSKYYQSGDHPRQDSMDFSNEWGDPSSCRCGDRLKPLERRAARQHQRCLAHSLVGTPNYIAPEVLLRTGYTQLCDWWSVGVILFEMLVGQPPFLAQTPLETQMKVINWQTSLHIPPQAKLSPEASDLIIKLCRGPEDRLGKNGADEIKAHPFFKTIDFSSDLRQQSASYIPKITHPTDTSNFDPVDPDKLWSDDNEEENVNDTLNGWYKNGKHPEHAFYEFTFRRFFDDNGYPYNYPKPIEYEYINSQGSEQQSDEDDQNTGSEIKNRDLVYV
- assay.method.text: KINOMEscan competition binding
- details: compound 10.0 µM
Numeric answer only, unit % assumed.

Examples from the recorded data:
COc1ccc(-c2ccc3c(N4CCOCC4)nc(N4C[C@@H](C)O[C@@H](C)C4)nc3n2)cc1CO: 96
COC(=O)Nc1ccc(-c2nc(N3CCOCC3)c3cnn(C4CCN(C(=O)OC)CC4)c3n2)cc1: 100
CCC(=O)N1CCN(c2ccc(-n3c(=O)ccc4cnc5ccc(-c6cnc7ccccc7c6)cc5c43)cc2C(F)(F)F)CC1: 100

kinase still bound, per cent of control for CC(C)n1nc(-c2cc3cc(O)ccc3[nH]2)c2c(N)ncnc21 ?
55

* * *

- target.of.assay: ROCK1 (human)
- assay.method.text: KINOMEscan competition binding
- details: compound 10.0 µM
observed.property: kinase still bound, per cent of control
Answer shape: numeric part, then the unit.

kinase still bound, per cent of control for CC(C)n1nc(-c2cc3cc(O)ccc3[nH]2)c2c(N)ncnc21 ?
61%

kinase still bound, per cent of control for COC(=O)Nc1ccc(-c2nc(N3CCOCC3)c3cnn(C4CCN(C(=O)OC)CC4)c3n2)cc1 ?
82%

kinase still bound, per cent of control for CCC(=O)N1CCN(c2ccc(-n3c(=O)ccc4cnc5ccc(-c6cnc7ccccc7c6)cc5c43)cc2C(F)(F)F)CC1 ?
53%

kinase still bound, per cent of control for COc1ccc(-c2ccc3c(N4CCOCC4)nc(N4C[C@@H](C)O[C@@H](C)C4)nc3n2)cc1CO ?
89%

* * *

// reported kinase still bound, per cent of control for each item listed
- target.of.assay: CAMKK1 (human) (UniProt Q8N5S9)
- Sequence (Q8N5S9 whole entry, looked up): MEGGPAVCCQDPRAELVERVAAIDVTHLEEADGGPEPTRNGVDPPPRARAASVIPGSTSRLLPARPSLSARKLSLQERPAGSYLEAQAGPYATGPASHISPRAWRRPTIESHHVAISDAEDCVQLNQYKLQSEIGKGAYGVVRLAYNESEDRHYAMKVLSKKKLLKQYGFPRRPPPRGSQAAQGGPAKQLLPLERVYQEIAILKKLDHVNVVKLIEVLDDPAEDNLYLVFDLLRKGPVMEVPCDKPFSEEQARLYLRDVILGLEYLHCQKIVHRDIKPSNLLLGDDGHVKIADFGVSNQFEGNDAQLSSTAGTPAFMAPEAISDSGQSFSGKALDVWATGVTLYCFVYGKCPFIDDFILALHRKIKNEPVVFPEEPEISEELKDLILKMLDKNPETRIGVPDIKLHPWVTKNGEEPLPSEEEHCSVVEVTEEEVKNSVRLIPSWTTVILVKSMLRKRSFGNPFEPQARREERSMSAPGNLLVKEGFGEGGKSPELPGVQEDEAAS
- assay.method.text: KINOMEscan competition binding
- details: compound 10.0 µM
Numeric answer only, unit % assumed.

Examples from the recorded data:
CCC(=O)N1CCN(c2ccc(-n3c(=O)ccc4cnc5ccc(-c6cnc7ccccc7c6)cc5c43)cc2C(F)(F)F)CC1: 80
COc1ccc(-c2ccc3c(N4CCOCC4)nc(N4C[C@@H](C)O[C@@H](C)C4)nc3n2)cc1CO: 100

kinase still bound, per cent of control for COC(=O)Nc1ccc(-c2nc(N3CCOCC3)c3cnn(C4CCN(C(=O)OC)CC4)c3n2)cc1 ?
100

kinase still bound, per cent of control for CC(C)n1nc(-c2cc3cc(O)ccc3[nH]2)c2c(N)ncnc21 ?
49

* * *

- target.of.assay: MAPK14 (human) (UniProt Q16539)
- Sequence (Q16539 whole entry, looked up): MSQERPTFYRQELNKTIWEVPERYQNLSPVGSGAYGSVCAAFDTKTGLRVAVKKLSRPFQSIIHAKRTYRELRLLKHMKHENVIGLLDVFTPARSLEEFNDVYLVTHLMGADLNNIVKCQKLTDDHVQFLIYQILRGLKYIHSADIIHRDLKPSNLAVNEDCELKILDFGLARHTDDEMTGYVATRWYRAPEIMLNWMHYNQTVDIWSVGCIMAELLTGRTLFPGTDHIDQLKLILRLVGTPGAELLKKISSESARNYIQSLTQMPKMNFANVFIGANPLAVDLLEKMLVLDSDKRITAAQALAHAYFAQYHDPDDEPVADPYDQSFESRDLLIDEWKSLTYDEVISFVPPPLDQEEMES
- details: compound 1.0 µM
// reported per cent of control for each item listed
Numeric answer only, unit % assumed.

Examples from the recorded data:
CCC(=O)N1CCN(c2ccc(-n3c(=O)ccc4cnc5ccc(-c6cnc7ccccc7c6)cc5c43)cc2C(F)(F)F)CC1: 95
CC(C)n1nc(-c2cc3cc(O)ccc3[nH]2)c2c(N)ncnc21: 95
COC(=O)Nc1ccc(-c2nc(N3CCOCC3)c3cnn(C4CCN(C(=O)OC)CC4)c3n2)cc1: 97

per cent of control for COc1ccc(-c2ccc3c(N4CCOCC4)nc(N4C[C@@H](C)O[C@@H](C)C4)nc3n2)cc1CO ?
101
